These data points were gathered from patent US11395857B2.

experiment: Biodistribution of 177Lu-labeled αMSH analogues in mice bearing B16F10 mouse melanoma; assay type: in vivo, C57BL/6J mice; conditions: mouse, tumour/blood, iv, total radioactivity; 4 h p.i., C57BL/6J mice, B16F10 melanoma; read-out: Tumour/blood
readout_kind: tissue to tissue ratio at 4 h
Please respond with just the number, no unit label.

Exercise: Consider the molecule CCCC[C@H](NC(=O)CN1CCC(NC(=O)CN2CCN(CC(=O)O)CCN(CC(=O)O)CCN(CC(=O)O)CC2)CC1)C(=O)N[C@H]1CC(=O)NCCCC[C@@H](C(N)=O)NC(=O)[C@H](Cc2c[nH]c3ccccc23)NC(=O)[C@H](CCCNC(=N)N)NC(=O)[C@@H](Cc2ccccc2)NC(=O)[C@H](Cc2c[nH]cn2)NC1=O [^177Lu-labeled CCZ01048, metal not drawn, reference compound] . State its measured tissue to tissue ratio at 4 h.
Key: 206
